From: ChEMBL document CHEMBL2062422

# Test system: Rattus norvegicus
# Protocol summary: Ulcerogenic activity in albino rat assessed as hyperemia at 300 mg/kg/day administered as equal doses at 0 and 12 hrs for three consecutive days measured at 6 hrs post last dose
# Type: toxicity, organism-based
# Condition notes: in vivo
Attribute: Activity
Value type: Activity (%)

INSERT INTO results (sample_smiles, value_unit, experimental_result) VALUES
  ('Cc1c(C(N)=O)sc2nc(NN)n(Cc3ccccc3)c(=O)c12', '%', 10),
  ('CCOC(=O)CSc1nnc2n(Cc3ccccc3)c(=O)c3c(C)c(C(N)=O)sc3n12', '%', 20);

* * *

# Tested on: Rattus norvegicus
# Protocol summary: Ulcerogenic activity in albino rat assessed as hyperemia at 300 mg/kg/day administered as equal doses at 0 and 12 hrs for three consecutive days measured at 6 hrs post last dose
# Assay type: toxicity, organism-based
# Condition notes: in vivo
Value type: Activity

INSERT INTO results (sample_smiles, experimental_target, value_type, experimental_result) VALUES
  ('Cc1c(C(N)=O)sc2c1c(=O)n(Cc1ccccc1)c1n[nH]c(=O)n21', 'Rattus norvegicus', 'Activity', 'Non-toxic'),
  ('Cc1c(C(N)=O)sc2nc(-n3nc(-c4ccc(Cl)cc4)cc3N)n(Cc3ccccc3)c(=O)c12', 'Rattus norvegicus', 'Activity', 'Non-toxic'),
  ('CC1=NN(c2nc3sc(C(N)=O)c(C)c3c(=O)n2Cc2ccccc2)C(=O)C1', 'Rattus norvegicus', 'Activity', 'Non-toxic');
